# assay_target: T1, human serum albumin (human, UniProt P02768 25-609)
# T1 construct: mature; Bought protein; biotinylated in the Octet and HTRF assays; also called HSA; HuSA
# protocol_description: SPR (Biacore T200), albumin amine-coupled to CM5, Affimer analyte, pH 7.4
reported_property: koff (s⁻¹)
Write the value in s⁻¹ as a bare number.

{"columns": ["binder", "koff / s⁻¹"],
 "data": [
  ["HSA-41 (designed binder, also called HSA-41 parent; HSA-41 AH parent) MIPRGLSEAKPATPEIQEIVDKVKPQLEEKTNETYGKLEAVQYKTQVLANFFQRRWPGSTNYYIKVRAGDNKYMHLKVFNGPWKFRNTDRGADRVLTGYQVDKNKDDELTGFHHHHHH", 0.0037],
  ["HSA-18 (designed binder, also called HSA-18 monomer) MIPRGLSEAKPATPEIQEIVDKVKPQLEEKTNETYGKLEAVQYKTQVLADWWQAKWPHSTNYYIKVRAGDNKYMHLKVFNGPYKVHQSSGGADRVLTGYQVDKNKDDELTGFHHHHHH", 0.00789],
  ["HSA-20 (designed binder) MIPRGLSEAKPATPEIQEIVDKVKPQLEEKTNETYGKLEAVQYKTQVLAGYWAAKWPGSTNYYIKVRAGDNKYMHLKVFNGPFPNTSYDLQADRVLTGYQVDKNKDDELTGFHHHHHH", 0.0183]
]}

Query string: Request the reported koff associated with HSA-36 (designed binder) MIPRGLSEAKPATPEIQEIVDKVKPQLEEKTNETYGKLEAVQYKTQVLAGHYARYWPGSTNYYIKVRAGDNKYMHLKVFNGPWAQKSKVHQADRVLTGYQVDKNKDDELTGFHHHHHH
Result string: 0.00451

The values you see were collected from patent US20230272011A1.
